- measurement description: Pharmacokinetic study in mice
- Assay type: in vivo, BALB/c mice
- measurement parameters: BALB/c, mouse, in vivo, po, 6.25 mg/kg
quantity measured: Tmax (h)
// units = h; emit number, no label

Ask | What does the data say about its Tmax? Entry: COc1ncc(-c2ccc(Cl)cc2)cc1[C@@H](c1ccccc1)[C@@](O)(CCN(C)C)c1cccc2ccccc12
Reply | 7.33

* * *

- measurement description: Pharmacokinetic study in beagle dogs
- Type: in vivo
- measurement parameters: dog, in vivo, iv, 0.5 mg/kg
quantity measured: Vd (L/kg)
// units = L/kg; emit number, no label

Ask | What does the data say about its Vd? Entry: COc1ncc(-c2ccc(Cl)cc2)cc1[C@@H](c1ccccc1)[C@@](O)(CCN(C)C)c1cccc2ccccc12
Reply | 6.04

* * *

- measurement description: Pharmacokinetic study in beagle dogs
- Type: in vivo
- measurement parameters: dog, in vivo, iv, 0.5 mg/kg, AUC0-inf
quantity measured: AUC(0-inf) (ng·h/mL)
// units = ng·h/mL; emit number, no label

Ask | What does the data say about its AUC(0-inf)? Entry: COc1ncc(-c2ccc(Cl)cc2)cc1[C@@H](c1ccccc1)[C@@](O)(CCN(C)C)c1cccc2ccccc12
Reply | 4250

* * *

- measurement description: Pharmacokinetic study in mice
- Format: in vivo, BALB/c mice
- measurement parameters: BALB/c, mouse, in vivo, iv, 1 mg/kg
quantity measured: clearance (mL/min/kg)
// units = mL/min/kg; emit number, no label

Ask | What does the data say about its clearance? Entry: COc1ncc(-c2ccc(Cl)cc2)cc1[C@@H](c1ccccc1)[C@@](O)(CCN(C)C)c1cccc2ccccc12
Reply | 3.59

* * *

- measurement description: Pharmacokinetic study in beagle dogs
- Assay type: in vivo
- measurement parameters: dog, in vivo, po, 6 mg/kg
quantity measured: bioavailability

Ask | What does the data say about its bioavailability? Entry: COc1ncc(-c2ccc(Cl)cc2)cc1[C@@H](c1ccccc1)[C@@](O)(CCN(C)C)c1cccc2ccccc12
Reply | 46.6%

Reference source: paper PMC8849072
